Reference for the values: patent US20250009745A1

- measurement_target: CDK2 (Homo sapiens)
- Construct: purchased Carna Company
- assay_procedure: CDK enzymology experiment in vitro, capillary mobility shift assay (MSA)
- Format: biochemical
- assay_setup: read-out: CDK2 (nM) inhibitory IC50
# IC50 per record follows

[[record]]
molecule = "O=S(=O)(c1ccc(N2CCNCC2)nc1)N1CCC(Nc2ncc(C(F)(F)F)c(O[C@H]3CCOC3)n2)CC1"
measurement_target = "CDK2 (Homo sapiens)"
test_value = "< 0.5 nM"

[[record]]
molecule = "Cn1cc(S(=O)(=O)N2CCC(Nc3ncc([N+](=O)[O-])c(NC4CCCC4)n3)CC2)cn1"
measurement_target = "CDK2 (Homo sapiens)"
test_value = "10 to 50 nM"


Request: State its IC50: O=S(=O)(c1ccc(C2CCNCC2)cn1)N1CCC(Nc2ncc(C(F)(F)F)c(O[C@H]3CCOC3)n2)CC1
Response: < 0.5 nM

Request: Quote IC50 reported for Cn1cc(S(=O)(=O)N2CCC(Nc3ncc(C#N)c(O[C@@H]4CC[C@@H](O)C4)n3)CC2)cn1 (single isomer, unassigned) please.
Response: 2.5 to 10 nM
